- Tested system: E. coli CsgA (Escherichia coli, UniProt P28307)
- Construct: made in house; host or cells: E. coli NEB 3016 slyD::kan, pET11d
- Sequence (P28307 23-151): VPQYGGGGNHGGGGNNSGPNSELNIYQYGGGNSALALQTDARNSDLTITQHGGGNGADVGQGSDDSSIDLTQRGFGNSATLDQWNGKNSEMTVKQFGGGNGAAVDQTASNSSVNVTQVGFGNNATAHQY
- Experiment notes: In vitro ThioflavinT assay of CsgA aggregation (CsgA ThT Assay)
- Type: biochemical
- Experimental parameters: read-out: CsgA ThT Assay (10 μM CsgA) % Control AUC at 1005 minutes, 100 μM, mean AUC as % of DMSO control; CsgA 10 μM, black plates; compound 100 μM; 1005 minutes
Assay readout: remaining activity at 100 µM

Worked set:
[[record]]
molecule = "CN1CC(C(=O)O)n2c(c(-c3cccc(C(F)(F)F)c3)c(Cc3cccc4ccccc34)c(Br)c2=O)S1(=O)=O (stereo not shown) [Compound 058]"
measured_result = "22%"

[[record]]
molecule = "Cn1c(=O)c2c(nc(CCCCCCCN3CC(C(=O)O)n4c(c(-c5cccc(C(F)(F)F)c5)c(Cc5cccc6ccccc56)cc4=O)S3(=O)=O)n2C)n(C)c1=O (stereo not shown) [Compound 047]"
measured_result = "71%"

[[record]]
molecule = "CN1CC(C(=O)O)n2c(c(-c3cccc(C(F)(F)F)c3)c(Cc3ccc(NS(C)(=O)=O)c4ccccc34)cc2=O)S1(=O)=O (stereo not shown) [Compound 067]"
measured_result = "16%"

[[record]]
molecule = "Nc1c(Cc2cccc3ccccc23)c(-c2cccc(C(F)(F)F)c2)c2n(c1=O)C(C(=O)O)CN(CCCCCO)S2(=O)=O (stereo not shown) [Compound 100]"
measured_result = "31%"


Q: # get_value(readout='remaining activity at 100 µM', item= C/C=C\c1c(Cc2cccc3ccccc23)c(-c2cccc(C(F)(F)F)c2)c2n(c1=O)C(C(=O)O)CN(C)S2(=O)=O (stereo not shown) [Compound 087] )
A: 15%

---

- Tested system: E. coli CsgA (Escherichia coli)
- Construct: made in house; host or cells: E. coli NEB 3016 slyD::kan, pET11d
- Experiment notes: In vitro ThioflavinT assay of CsgA aggregation (CsgA ThT Assay)
- Type: biochemical
- Experimental parameters: read-out: CsgA ThT Assay (10 μM CsgA) % Control AUC at 1005 minutes, 100 μM, mean AUC as % of DMSO control; CsgA 10 μM, black plates; compound 100 μM; 1005 minutes
Param label: returns yes when remaining activity at 100 µM < 40%, returns no otherwise, including exact equality.

Some solved entries appear below for comparison.
[[record]]
molecule = "O=C(O)c1c(-c2ccccc2)sc2c(-c3cccc(C(F)(F)F)c3)c(Cc3cccc4ccccc34)cc(=O)n12 [Compound 051]"
assigned_label = "no"

[[record]]
molecule = "CCc1c(Cc2cccc3ccccc23)c(-c2cccc(C(F)(F)F)c2)c2n(c1=O)C(C(=O)O)CN(C)S2(=O)=O (centres unmarked) [Compound 076]"
assigned_label = "yes"


Q: Dear colleague, could you confirm whether remaining activity at 100 µM of CCN1CC(C(=O)O)n2c(c(-c3cccc(C(F)(F)F)c3)c(Cc3cccc4ccccc34)cc2=O)S1(=O)=O (single isomer, unassigned) [Compound 015a] falls below 40%? Thanks.
A: yes

Q: Dear colleague, could you confirm whether remaining activity at 100 µM of O=C(O)c1c(CCc2ccccc2)sc2c(-c3cccc(C(F)(F)F)c3)c(Cc3cccc4ccccc34)cc(=O)n12 [Compound 062] falls below 40%? Thanks.
A: no
